Where do these numbers come from? They come from PubChem BioAssay (NCI).

Task for the reader: assign each of the following compounds its reported TGI.
system: NCI/ADR-RES ovarian; experiment: NCI tumour cell line growth inhibition, 48 h

Exam item: // lookup TGI for CC[C@H](Nc1nc(NCc2cnc(C)cc2C)c2ncn(C(C)C)c2n1)[C@@H](C)O
Marked response: > 31 µM

Exam item: // query TGI value for entry c1ccc2c(c1)nc1n2CCCn2ccnc2-1
Marked response: > 100 µM

Exam item: Which TGI value is on record for COC(=O)C1=C(C(=O)ON)C2C=CC1(C(Cc1ccccc1)Nc1ccccc1)O2 (stereo not given) ?
Marked response: 36.2 µM

Exam item: # query: TGI of entry c1ccc(Cc2nc(Cc3n[nH]c(Cc4ccccc4)n3)n[nH]2)cc1
Marked response: > 100 µM

Exam item: Look up TGI for this compound: Cc1cc(S(N)(=O)=O)c(S/C(CC(C)C)=N\Nc2ccc([N+](=O)[O-])cc2)cc1Cl
Marked response: 19.2 µM

Exam item: Endpoint output: TGI of COc1cc2c3c(n(CCCN)c(=O)c2cc1OC)-c1cc2c(cc1/C3=C\CCN)OCO2 . Value?
Marked response: > 100 µM

Exam item: Report TGI for CCN1CCN(c2ccc(Nc3ccnc4ccc5c(nnn5C)c34)cc2)CC1 please.
Marked response: 36.7 µM

Exam item: Would you kindly share the measured TGI for CCCc1cc2c(=O)c(C(=O)OC)c[nH]c2cc1N(CC)CC ?
Marked response: 72.8 µM

Exam item: Consider the compound Cc1nc2sc3ccccc3n2c(=O)c1N=Nc1ccc(Br)cc1 and give its measured TGI.
Marked response: > 100 µM

Exam item: Which measured TGI value corresponds to [O-][n+]1onc2c1CCC(=N\O)/C2=N/Nc1ccccc1 ?
Marked response: > 100 µM
